The reported measurements were obtained from patent US20240239886A1.

Form field: OD at dilution 9000 (one value per entry).
# experimental-target: T1, recombinant protein consisting of the extracellular domain of human TREM2 fused to the His tag (human, UniProt Q9NZC2 19-174)
# T1 construct: also called His tagged hTREM2; His-TREM2
# T1 sequence: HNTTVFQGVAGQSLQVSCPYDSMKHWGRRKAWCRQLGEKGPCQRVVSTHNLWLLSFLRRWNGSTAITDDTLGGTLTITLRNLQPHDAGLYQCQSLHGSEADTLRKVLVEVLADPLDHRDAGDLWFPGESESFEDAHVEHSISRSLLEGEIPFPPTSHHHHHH
# assay-details: direct ELISA, coated His-TREM2 0.5 ug/mL, Ab stock 1 mg/mL
# Description: Ninety six-Well ELISA microplate was coated with 0.5 μg/mL, 100 μl/well His tagged hTREM2 diluted in PBS pH 7.4, and incubated at 4° C. overnight. The plate was rinsed three times with 0.05% tween20 in PBS, blocked with 1% BSA in PBS at room temperature (RT) for 1 hr, and rinsed again. The plates was incubated with the anti hTREM2 antibodies (100 μl/well) for 2 hrs at indicated concentration, at RT. […] OD was measured using an ELISA plate reader at dual wavelengths (450 nm and 570 nm)
Field: numeric (OD). Do not append units.

Solved cases below.
60H4A3 (antibody, V domains shown, Biotin conjugated in sup ELISA, cell-based ELISA and flow cytometry) VH: EVQLQESGPELVKPGASVKMSCKASGYTFTDYNMHWVKQSHGKSLEWIGYIYPNNGGTGYNQKFKGKATLTVNKSSSTAYMELRSLTSEDSAVYYCARSGRGFAYWGQGTLVTVSA VL: DIVMTQSPASLSVTPGDRVSLSCRASQSISDYLHWYQQKSHESPRLLIKYASQSISGIPSRFSGSGSGSDFTLSINSVEPEDVGVYYCQNGHSFPYTFGGGTKLEIK; 1.9
54H2C1 (antibody, V domains shown, Biotin conjugated in sup ELISA, cell-based ELISA and flow cytometry) VH: QVQLQQPGAEPLTPGASVKMSCEASGYTFTNFWITWVKLRPGQGLEWIGDIYPGSGNTNYNEKFKSRATLTVDTSSTTAYMQLSSLTSEDSAVYYCAREAYYTNPGFAYWGHGTLVTVSA VL: DVLMTQSPLSLPVNLGDQASISCKSSQNIVHSNGNTYLEWYLQRPGQSPKLLIYKVSNRFSGVPDRFSGSGSGTDFTLKISRVEAEDLGLYYCFQGSHVPYTFGGGTKLEIK; 1.18

For the next question, use this binder.
Exercise: I am curious: what OD at dilution 9000 value has been reported for 80E3C7 (antibody, V domains shown, Biotin conjugated in sup ELISA, cell-based ELISA and flow cytometry; also called anti-TREM2 antibody (E3C7); TREM2 Ab E3C7) VH: QVQLQQPGAEPLKPGASVKMSCEASGYTFTNFWITWMKLRPGQGLEWIGDIYPGTGNTNYNEKFKSRATLTVDTSSTTAYMQLSSLTSEDSAVYYCAREAYYTNPGFAYWGHGTLVTVSA VL: DVLMTQSPLSLPVNLGDQASISCKSSQNIVHSNGNTYLEWYLQRPGQSPKLLIYKVSNRFSGVPDRFSGSGSGTDFTLKISRVEAEDLGVYYCFQGSHVPYTFGGGTKLEIK ?
Key: 2.16
